# SYSTEM UNDER TEST: Recombinant human ULK1 (1-649) (Homo sapiens (Human), UniProt O75385)
# Sequence (O75385 1-649): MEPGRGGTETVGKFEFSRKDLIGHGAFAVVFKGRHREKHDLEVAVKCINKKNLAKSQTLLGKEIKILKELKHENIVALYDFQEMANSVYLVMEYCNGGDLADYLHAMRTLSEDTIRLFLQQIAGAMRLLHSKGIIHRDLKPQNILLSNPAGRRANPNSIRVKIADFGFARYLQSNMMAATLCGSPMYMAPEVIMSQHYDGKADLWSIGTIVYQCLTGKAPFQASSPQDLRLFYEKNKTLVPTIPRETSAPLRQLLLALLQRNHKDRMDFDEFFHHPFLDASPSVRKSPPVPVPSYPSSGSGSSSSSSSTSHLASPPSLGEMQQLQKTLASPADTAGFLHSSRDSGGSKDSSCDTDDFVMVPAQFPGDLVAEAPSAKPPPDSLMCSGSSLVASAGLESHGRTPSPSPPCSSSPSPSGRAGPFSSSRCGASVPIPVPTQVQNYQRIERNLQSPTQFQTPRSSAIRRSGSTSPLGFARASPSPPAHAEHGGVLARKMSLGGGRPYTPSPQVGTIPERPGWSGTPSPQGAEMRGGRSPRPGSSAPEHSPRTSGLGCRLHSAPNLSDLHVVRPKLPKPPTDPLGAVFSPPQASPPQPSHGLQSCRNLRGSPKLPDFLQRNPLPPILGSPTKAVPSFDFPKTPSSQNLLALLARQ
# PROTOCOL TEXT: ULK1 ADP Glo kinase activity assay, new method (ULKtide peptide substrate)
# SETTINGS: 25° C., 40 minutes, read-out: ULK1 biochemical IC50
pIC50: −log10 of the molar value.
Measured pIC50 by item

As a guide, the following entries are already answered.
{"MOLECULE": "NC(=O)CN1CCc2cc(Nc3ncc(C(F)(F)F)c(-c4cc5c(s4)C(=O)N(C4COC4)CCS5(=O)=O)n3)c(C3CC3)cc2C1 [Example 284]", "pIC50": "≥ 8.30"}
{"MOLECULE": "O=C1c2sc(-c3nc(Nc4cc5c(cc4OC(F)(F)F)CNCC5)ncc3C(F)(F)F)cc2S(=O)(=O)CCN1C1CC1 [Example 273]", "pIC50": "≥ 8.30"}

Record request: pIC50 value, item CCN1CCc2cc(Cl)c(Nc3ncc(C(F)(F)F)c(-c4cc5c(s4)C(=O)N(C)CCS5(=O)=O)n3)cc2C1 [Example 211]
7.30 to 8.00

Record request: pIC50 value, item CC1(C)CC(CN2CCc3cc(Nc4ncc(C(F)(F)F)c(-c5cc6c(s5)C(=O)N(C5CC5)CCS6(=O)=O)n4)c(C4CC4)cc3C2)O1 (stereo not drawn) [Example 297]
≥ 8.30

Record request: pIC50 value, item O=C1c2sc(-c3nc(Nc4ccc(N5C[C@H]6CC[C@@H](C5)N6)cc4C4CC4)ncc3C(F)(F)F)cc2S(=O)(=O)CCN1C1COC1 [Example 318]
≥ 8.30

Record request: pIC50 value, item O=C1c2sc(-c3nc(Nc4ccc(N5CC6(CNC6)C5)cc4C4CC4)ncc3C(F)(F)F)cc2S(=O)(=O)CCN1C1COC1 [Example 377]
≥ 8.30
